# experimentalSystem: prokineticin receptor(s) of guinea pig ileum (ileal membranes; ileal longitudinal smooth muscle) (guinea pig)
# testDescription: displacement of 125I-prokineticin 1 (20 pM) from guinea pig ileal membranes, high-affinity site
measure: pKi
Keep in mind that pKi stands for -log10 of concentration in molar terms.

## Input Return pKi (reported value) for this binder: recombinant refolded human prokineticin 2 (unlabeled), 6×His-tagged (ligand) AVITGACDKDSQCGGGMCCAVSIWVKSIRICTPMGKLGDSCHPLTRKVPFFGRRMHHTCPCLPGLACLRTSFNRFICLAQKHHHHHH
## Output 11.38
